Experiment: The drug is tested on WLS-077 corresponding to human gut metagenome with ENA study accession number: PRJEB37062 and ENA sample accession number: ERS12561750 for biotransformation under anaerobic condition. The drug concentrations were measured over 9 timepoints collected between 0 and 24 hours of incubation by liquid-chromatography-coupled mass spectrometry (LC–MS); also: call rule not given here
Details: 2 µM

compound	Bacterial Biotransformation
Cc1nc2n(c(=O)c1CCN1CCC(c3noc4cc(F)ccc34)CC1)CCCC2	Compound metabolized
CN1CC(=O)N2[C@H](c3ccc4c(c3)OCO4)c3[nH]c4ccccc4c3C[C@@H]2C1=O	Compound metabolized
COc1cc2c(c(OC)c1OC)-c1ccc(OC)c(=O)cc1[C@@H](NC(C)=O)CC2	Compound metabolized
O=c1[nH]c2ccccc2n1C1CCN(CCCC(c2ccc(F)cc2)c2ccc(F)cc2)CC1 [PIMOZIDE]	Compound NOT metabolized
CC(C)NCC(O)COc1ccc(COCCOC(C)C)cc1.CC(C)NCC(O)COc1ccc(COCCOC(C)C)cc1.O=C(O)/C=C/C(=O)O (stereo not drawn) [BISOPROLOL FUMARATE]	Compound NOT metabolized
C#C[C@]1(O)CC[C@H]2[C@@H]3CCC4=Cc5oncc5C[C@]4(C)[C@H]3CC[C@@]21C	Compound metabolized
Nc1c2c(nc3ccccc13)CCCC2	Compound metabolized
OC(CCN1CCCCC1)(c1ccccc1)C1CC2C=CC1C2 (stereo not drawn)	Compound NOT metabolized
COc1c2occc2cc2ccc(=O)oc12	Compound metabolized
C[C@@H](CO)NC(=O)[C@@H]1C=C2c3cccc4[nH]cc(c34)C[C@H]2N(C)C1.O=C(O)/C=C\C(=O)O [ERGONOVINE MALEATE]	Compound metabolized
C=CCc1ccccc1OCC(O)CNC(C)C (stereo not drawn)	Compound NOT metabolized
Cc1ccc(S(=O)(=O)NC(=O)NN2CC3CCCC3C2)cc1 (stereo not drawn) [GLICLAZIDE]	Compound metabolized
CC[C@H](C)C(=O)O[C@H]1C[C@@H](C)C=C2C=C[C@H](C)[C@H](CC[C@@H]3C[C@@H](O)CC(=O)O3)[C@H]21	Compound NOT metabolized
CN1CCN(C(=O)O[C@H]2c3nccnc3C(=O)N2c2ccc(Cl)cn2)CC1	Compound NOT metabolized
COc1ccccc1OCC(O)CN1CCN(CC(=O)Nc2c(C)cccc2C)CC1 (stereo not drawn)	Compound NOT metabolized
Nc1nc2ccc(OC(F)(F)F)cc2s1	Compound metabolized
COc1ccc2[nH]c([S+]([O-])Cc3ncc(C)c(OC)c3C)nc2c1 (stereo not drawn)	Compound metabolized
Nc1ccc(/N=N/c2ccccc2)c(N)n1	Compound metabolized

---

Assay: The drug is tested on WLS-027 corresponding to human gut metagenome with ENA study accession number: PRJEB37062 and ENA sample accession number: ERS12561744 for biotransformation under anaerobic condition. The drug concentrations were measured over 9 timepoints collected between 0 and 24 hours of incubation by liquid-chromatography-coupled mass spectrometry (LC–MS)
Settings: 2 µM
experimental readout: Bacterial Biotransformation

compound	measured value
CNC(=C[N+](=O)[O-])NCCSCc1csc(CN(C)C)n1	Compound NOT metabolized
O=c1[nH]c2ccccc2n1C1CCN(CCCC(c2ccc(F)cc2)c2ccc(F)cc2)CC1 [PIMOZIDE]	Compound metabolized
CC(=O)OCC(=O)[C@@]12N=C(C)O[C@@H]1C[C@H]1[C@@H]3CCC4=CC(=O)C=C[C@]4(C)[C@H]3[C@@H](O)C[C@@]12C	Compound metabolized
NC12CC3CC(CC(C3)C1)C2	Compound NOT metabolized
O=C(Nc1ccccc1)OCC(CN1CCCCC1)OC(=O)Nc1ccccc1 (stereo not drawn)	Compound metabolized
CCc1nn(CCCN2CCN(c3cccc(Cl)c3)CC2)c(=O)n1CCOc1ccccc1	Compound metabolized
CCC(=O)NCC[C@@H]1CCc2ccc3c(c21)CCO3	Compound metabolized
CS(=O)(=O)O.O.O.O.O=C1Cc2cc(CCN3CCN(c4nsc5ccccc45)CC3)c(Cl)cc2N1 [ZIPRASIDONE MESYLATE]	Compound metabolized
OC(CCN1CCCCC1)(c1ccccc1)C1CC2C=CC1C2 (stereo not drawn)	Compound NOT metabolized
CN(C)C(=O)C(CCN1CCC(O)(c2ccc(Cl)cc2)CC1)(c1ccccc1)c1ccccc1 [LOPERAMIDE]	Compound metabolized
CCc1nc(N)nc(N)c1-c1ccc(Cl)cc1	Compound NOT metabolized
Cc1ccc(-c2nc3ccc(C)cn3c2CC(=O)N(C)C)cc1	Compound NOT metabolized
CC(CN1c2ccccc2Sc2ccccc21)N(C)C (stereo not drawn)	Compound metabolized
Nc1ccc(/N=N/c2ccccc2)c(N)n1	Compound metabolized
O=C(CCCN1CCC(O)(c2ccc(Cl)cc2)CC1)c1ccc(F)cc1	Compound metabolized
CN/C(=N/CCSCc1nc[nH]c1C)NC#N	Compound metabolized
CCOC(=O)[C@H](CCc1ccccc1)N[C@H]1CCc2ccccc2N(CC(=O)O)C1=O	Compound metabolized
O=P(O)(O)O.c1ccc(CN(CC2=NCCN2)c2ccccc2)cc1 [ANTAZOLINE PHOSPHATE]	Compound NOT metabolized
